subject of test: Luciferin 4-monooxygenase (Photinus pyralis)
protocol details: qHTS Assay for Inhibitors of Firefly Luciferase from the GSK Published Protein Kinase Inhibitor Set
setup conditions: purified firefly luciferase, luminescence inhibition; series mostly up to 57.5 µM
Results filed as inconclusive are left out. Active and inactive are the calls of the source. Calls follow the shape of the dose curve; as a rule, active = well fitted inhibition curve with a large enough effect; inconclusive = small, poorly fitted or top-dose-only effect; inactive = flat fitted curve, though single readings scatter.
Write down the outcome that applies. Available outcomes: active, inactive

molecule	label
COC(=O)Nc1nc2ccc(S(=O)(=O)c3ccc(NC(=O)Nc4cc(C(F)(F)F)ccc4F)cc3)cc2[nH]1	inactive
O=C(Nc1n[nH]c2cc(-c3ccccc3)ccc12)C1CC1	active
CCCN1CCC=C(c2ccc(Nc3nc(Nc4ccccc4C(N)=O)c4cc[nH]c4n3)c(C)c2)C1	inactive

Req: Please indicate how the test categorized NS(=O)(=O)c1ccc(-c2cc3ccncc3cc2OCc2ccccc2)cc1 .
Resp: inactive

Req: Please indicate how the test categorized CS(=O)(=O)CCN(CC#N)Cc1ccc(-c2ccc3ncnc(Nc4ccc(OCc5cccc(F)c5)c(Cl)c4)c3c2)o1 .
Resp: inactive

Req: Please indicate how the test categorized c1ccc(Nc2ncc(-c3ccccc3)o2)cc1 .
Resp: active

Req: Please indicate how the test categorized Cc1cccc(-c2[nH]ncc2-c2ccc3ncccc3n2)n1 .
Resp: inactive

Req: Please indicate how the test categorized COc1cccc(COc2cc(-n3cnc4ccccc43)sc2C(N)=O)c1 .
Resp: inactive

Req: Please indicate how the test categorized Cc1ccc2c(-c3ccnc(Nc4ccc5c(c4)OCCO5)n3)c(-c3ccc(C(F)(F)F)cc3)nn2n1 .
Resp: inactive

Req: Please indicate how the test categorized COc1ccc(Nc2ncc(-c3ccccc3)o2)cc1OC .
Resp: active

Req: Please indicate how the test categorized NC(=O)c1sc(-n2cnc3cc(C(F)(F)F)ccc32)cc1OCc1ccccc1Br .
Resp: inactive

Req: Please indicate how the test categorized Nc1nccc(-c2c(-c3ccc(F)cc3)ncn2C2CCNCC2)n1 .
Resp: inactive

Req: Please indicate how the test categorized Fc1ccc(Oc2nccc(-c3c(-c4ccc(F)cc4)ncn3C3CCNCC3)n2)cc1 .
Resp: inactive

Req: Please indicate how the test categorized CCc1nn2ncccc2c1-c1ccnc(NC2CC2)n1 .
Resp: inactive

---

subject of test: Luciferin 4-monooxygenase (Photinus pyralis)
protocol details: qHTS Assay for Inhibitors of Firefly Luciferase from the GSK Published Protein Kinase Inhibitor Set
setup conditions: purified firefly luciferase, luminescence inhibition; series mostly up to 57.5 µM
Text: FLuc (firefly luciferase) is the prototypical bioluminescent reporter gene from Photinus pyralis.[1] The enzyme catalyzes the oxidation luciferin via luciferin-AMP to produce light. FLuc is used in cell-based reporter gene-based assays for screening small molecule chemical libraries. […]
Records with an inconclusive call do not appear. Calls of active or inactive are those of the source. The call rests on the fitted dose curve; in most records, active means well fitted inhibition curve with a large enough effect; inconclusive means small, poorly fitted or top-dose-only effect; inactive means flat fitted curve, though single readings scatter.
Write down the outcome that applies. Available outcomes: true (1) = active, false (0) = inactive

Look over these answered cases.
molecule	label
COC(=O)Nc1nc2ccc(Sc3ccc(NC(=O)Nc4cc(C(F)(F)F)ccc4F)cc3)cc2[nH]1	false (0)
CCn1c(-c2nonc2N)nc2c(N3CCCC3)nccc21	false (0)
CS(=O)(=O)CCNCc1nc(-c2ccc3ncnc(Nc4ccc(OCc5cccc(C(F)(F)F)c5)cc4)c3c2)cs1	false (0)
CCn1c(-c2nonc2N)nc2c(C#CC(C)(C)O)ncc(OC3CCNCC3)c21	false (0)
NC(=O)c1cccc(Nc2nccc(Nc3cccc4[nH]ncc34)n2)c1	true (1)

Req: Please indicate how the test categorized CC(C)c1ccc2c(N=Nc3ccc(S(N)(=O)=O)cc3)c(O)[nH]c2c1 .
Resp: false (0)

Req: Please indicate how the test categorized CCn1c(-c2nonc2N)nc2ccncc21 .
Resp: false (0)

Req: Please indicate how the test categorized COc1cc2ncn(-c3cc(OCc4ccccc4C(F)(F)F)c(C(N)=O)s3)c2cc1OC .
Resp: false (0)

Req: Please indicate how the test categorized Cc1nnc(-c2cccc(-c3ccc(C(=O)NCC4CC4)cc3)c2)o1 .
Resp: false (0)

Req: Please indicate how the test categorized CNC(=O)c1cncc(C=Cc2ccccc2C)c1 .
Resp: false (0)
